B1: NP_015628.1 (parent)
chain: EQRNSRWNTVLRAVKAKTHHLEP

- Variants of: B1
- runDescription: protein stability index of a GFP-peptide fusion (GPS, HEK-293T) (PSI 1-6); higher = more stable;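 note: lentivirally expressed fusion library, cells FACS-sorted into six equal-sized GFP/DsRed ratio bins, PSI computed from sequencing read fractions per bin weighted by bin number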
- particulars: c terminus: native
Everything with protein stability index lower than 3 is False; everything else, including exactly 3, is True.

Say whether EQRNSRWNTVLRAVKAKTHSLEP [H20S] shows protein stability index of 3 or more.
False

And then EQRNSRWNTVLRAVKAKTHHPEP [L21P] , what is it?
True

Cool, now EQRNSMWNTVLRAVKAKTHHLEP [R6M]
False

Another variant to look at: EQRNSRWNTVLRAVKAKTIHLEP [H19I]
True

Entry FQRNSRWNTVLRAVKAKTHHLEP [E1F] please
False

Could you do the same for EQRNSRWNTVLRAVKAKTHFLEP [H20F] , please?
True

Another: EQRNMRWNTVLRAVKAKTHHLEP [S5M]
False

Now this one: EQRNARWNTVLRAVKAKTHHLEP [S5A]
False

Thanks! And EQRNSRWNTVLRAVKAKIHHLEP [T18I] ?
True

Moving on to EQRNSRWDTVLRAVKAKTHHLEP [N8D]
False

Do the same for EQRNSRWGTVLRAVKAKTHHLEP [N8G] please
False

Then EQRNSRWNTVARAVKAKTHHLEP [L11A] ?
True

Similarly, EQRNSRWNTVLRAVKAKHHHLEP [T18H] ?
False

What about EQRNSRWNTVRRAVKAKTHHLEP [L11R] ?
True

Same read-out for GQRNSRWNTVLRAVKAKTHHLEP [E1G] ?
False

Now this one: EQRNSRWNTVLRAYKAKTHHLEP [V14Y]
False
